Tested on: HeLa cells
Test: MTS cell proliferation and/or cytotoxicity assay
Assay type: cell-based, Human
Details: Homo sapiens, HeLa, 72 h, concentration at which 50% of antiproliferative cell response is seen; 3 days incubation; read-out: MTS Data Hella
pIC50: −log10 of the molar value.
property measured: pIC50

[[record]]
molecule = "CN(C)CCCCNc1c(F)cc2c(=O)c(C(=O)NCCN3CCOCC3)cn3c4cc5c(cc4oc1c23)c(=O)c1ccccc15"
property_measured = "pIC50"
numeric_readout = 5.66

[[record]]
molecule = "CN1CCCC1CCNC(=O)c1cn2c3c(c(NCCCN4CCOCC4)c(F)cc3c1=O)Oc1cc3c(cc1-2)oc1ccccc13 (centres unmarked)"
property_measured = "pIC50"
numeric_readout = 5.40

[[record]]
molecule = "CN1CCCC1CCNC(=O)c1cn2c3c(c(NCC(O)c4ccccc4)c(F)cc3c1=O)Oc1cc3ccccc3cc1-2 (centres unmarked)"
property_measured = "pIC50"
numeric_readout = 6.72

[[record]]
molecule = "CN1CCCC1CCNC(=O)c1cn2c3c(c(N4CCC(NC(=O)OC(C)(C)C)C4)c(F)cc3c1=O)Oc1cc3c(cc1-2)oc1ccccc13 (centres unmarked)"
property_measured = "pIC50"
numeric_readout = 6.54

[[record]]
molecule = "NC1CCN(c2c(F)cc3c(=O)c(C(=O)NCCc4cnc[nH]4)cn4c3c2Oc2cc3ccccc3cc2-4)C1 (centres unmarked)"
property_measured = "pIC50"
numeric_readout = 5.72

[[record]]
molecule = "CN(C)/C=N/CCCNC(=O)c1cn2c3c(c(N4CC[C@@H](N)C4)c(F)cc3c1=O)Oc1cc3ccccc3cc1-2"
property_measured = "pIC50"
numeric_readout = 5.46

[[record]]
molecule = "O=C(NCCN1CCCC1)c1cn2c3c(c(NCC4CCCO4)c(F)cc3c1=O)Oc1cc3ccccc3cc1-2 (centres unmarked)"
property_measured = "pIC50"
numeric_readout = 5.85

[[record]]
molecule = "CN1CCCC1CCNc1c(F)cc2c(=O)c(C(=O)NCCN3CCCC3)cn3c2c1Oc1c-3ccc2ccccc12 (centres unmarked)"
property_measured = "pIC50"
numeric_readout = 5.68

